method_description: Lipophilicity, log P of the compound
Format: physicochemical
run_conditions: octanol/water
reported_endpoint: logP

a. Cc1cc(-c2cc(NC(=O)c3ccc(CN4CCN(C)CC4)cc3)[nH]n2)ccc1NC(=O)Nc1cc(C(C)(C)C)on1
b. Cc1cc(-c2cc(NC(=O)c3ccc(CN4CCN(C)CC4)cc3)[nH]n2)ccc1N
// select label with min value of measured logP from [ a , b ] Select an item and report its label.
b
(b: 2.61, a: 4.54)
